The measurements presented in this section are drawn from PubChem BioAssay AID463141.

- Subject Of Test: Caspase-3 (Homo sapiens) (UniProt P42574)
- Sequence (P42574 whole entry D9A/D28A/D175A): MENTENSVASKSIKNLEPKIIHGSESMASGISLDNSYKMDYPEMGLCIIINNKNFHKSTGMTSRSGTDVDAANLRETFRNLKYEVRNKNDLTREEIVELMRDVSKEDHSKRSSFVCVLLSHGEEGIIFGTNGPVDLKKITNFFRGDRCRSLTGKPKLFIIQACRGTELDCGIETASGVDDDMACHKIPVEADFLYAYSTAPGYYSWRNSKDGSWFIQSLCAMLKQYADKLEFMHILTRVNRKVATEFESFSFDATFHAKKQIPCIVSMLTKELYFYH
- Experiment Notes: procaspase-3 enzyme activation – biochemical, absorbance, PC-3 D3A mutant, single concentration, primary screen (AID 463141);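 further: 0% = DMSO alone and 100% = DMSO wells spiked with extra 5 µM PC-3 D3A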
- Assay Conditions: recombinant procaspase-3 D3A, Ac-DEVD-pNA absorbance 405 nm; at 8.5 µM; active compounds read high
Out of some 330,000 compounds screened, about 350 (0.11%) were called active. The list comes from a sample in which actives are over-represented; it also holds close analogues and randomly drawn compounds.
This listing pairs compounds with measured activation.
Give just the numeric value; % need not be written.

Solved cases (10 shown):
Compound | Subject Of Test | Meas Value
c1ccc2cc(CCCc3cc4ccccc4cn3)ncc2c1 | Caspase-3 (Homo sapiens) (UniProt P42574) | -5.39
CC(C)COP(=O)(c1ccc(N(C)C)cc1)C(Nc1ccccc1)c1cccnc1 (stereo unspecified) | Caspase-3 (Homo sapiens) (UniProt P42574) | 5.66
CCN(CC)S(=O)(=O)c1ccc(Cl)c(C(=O)NC(C)C(c2cccs2)N2CCCC2)c1 (stereo unspecified) | Caspase-3 (Homo sapiens) (UniProt P42574) | 0.02
COc1cccc(NC(=S)C(C#N)=C2N(C)c3ccccc3N2C)c1 | Caspase-3 (Homo sapiens) (UniProt P42574) | 0.38
COc1ccccc1CN(C)c1nnnn1-c1ccccc1 | Caspase-3 (Homo sapiens) (UniProt P42574) | 9.63
O=S(=O)(N/N=C\c1cccn1-c1ccccc1)c1ccc2ccccc2c1 | Caspase-3 (Homo sapiens) (UniProt P42574) | 0.8
CN(C)CCNC(=O)C(C(=O)c1ccccc1)n1ccccc1=O (stereo unspecified) | Caspase-3 (Homo sapiens) (UniProt P42574) | 2.49
COc1ccc(OC)c(Nc2nc3ccccc3n3cnnc23)c1 | Caspase-3 (Homo sapiens) (UniProt P42574) | -2.95
COc1ccc(CSc2nc(N3CCOCC3)c3c(c2C#N)CC(C)(C)OC3)cc1 | Caspase-3 (Homo sapiens) (UniProt P42574) | -2.72
COc1ccc(CN2[C@@H](CC(=O)O)c3cc(F)ccc3S2(=O)=O)cc1 | Caspase-3 (Homo sapiens) (UniProt P42574) | 3.51

// activation value for COC(=O)C1=C(C)N(C(C)c2ccccc2)C(=O)/C1=C\c1ccco1 (stereo unspecified) : 1.04

// activation value for CN(CC1CCCO1)S(=O)(=O)c1ccc(C(=O)Nc2ccc(F)cc2)cc1 (stereo unspecified) : -2.76
